Documented switch fluorescence ratio across a set of sequences
Test system: ATP;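 further: ATP exposure 15 min at 22 °C before imaging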
Experiment: switch fluorescence ratio, 500 uM ATP over buffer (Cy3 cluster intensity, sum of 5 cycles each) (fold (ratio)); higher = stronger signal-on switching upon ATP binding; sequences stand for … in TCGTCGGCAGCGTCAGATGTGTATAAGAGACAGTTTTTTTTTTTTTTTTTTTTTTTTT…TC
Settings: aptamer strand: ATP DNA aptamer (quencher-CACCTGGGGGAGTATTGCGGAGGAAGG + anchor), 100 nM annealed; ATP concentration: 500 uM
recorded.endpoint: switch fluorescence ratio

> print(dat)
    sequence.code          recorded.endpoint  measurement
 1     GTATATGGTC  switch fluorescence ratio         1.02
 2     CTTAACAGCG  switch fluorescence ratio         1.01
 3     TTGTTAATGA  switch fluorescence ratio        0.979
 4     ATGGGCGTAC  switch fluorescence ratio         1.03
 5     TCATTTTCGG  switch fluorescence ratio        0.986
 6     AGAAGAGTGT  switch fluorescence ratio         1.03
 7     CTGGAAAACG  switch fluorescence ratio         1.01
 8     TTTCGGATAA  switch fluorescence ratio         1.02
 9     GTTGGGGAAA  switch fluorescence ratio        0.999
10     GGCAAAGGGG  switch fluorescence ratio         1.01
11     AGGTCCGGGT  switch fluorescence ratio        0.998
12     AGGGGGTGTA  switch fluorescence ratio         1.02
13     TCTACGAAGG  switch fluorescence ratio         1.03
14     CGCTGTAGGT  switch fluorescence ratio         1.02
15     ACAGTGTGTG  switch fluorescence ratio         1.02
16     TATATTACGA  switch fluorescence ratio         1.03
17     GCAGCTGGTT  switch fluorescence ratio        0.994
18     ACCGTGAGGC  switch fluorescence ratio         1.02
19     GCGAGGGATT  switch fluorescence ratio         1.02
20     ATTCCTGGGG  switch fluorescence ratio         1.05
21     GTCATAAGTG  switch fluorescence ratio        0.982
22     TGACGTCAGT  switch fluorescence ratio        0.972
23     TTATCGGGCT  switch fluorescence ratio         1.02
24     GAACATCTCG  switch fluorescence ratio        0.993
25     TCGAGTATTC  switch fluorescence ratio         1.04
26     GGGAGGTTGC  switch fluorescence ratio         1.09
27     AGGTCGAGGG  switch fluorescence ratio        0.997
28     GGGAGAGAGT  switch fluorescence ratio        0.999
29     TGCAGGGGTA  switch fluorescence ratio         1.12
30     ATGTGATAGT  switch fluorescence ratio         0.98
31     GGCGCAATTT  switch fluorescence ratio          2.4
32     AGAGGGGGCC  switch fluorescence ratio         0.98
33       AAACGGAG  switch fluorescence ratio         1.01
34     ATTTGTTATT  switch fluorescence ratio         1.01
35     TTGGTTTGCT  switch fluorescence ratio         1.01
36     ATATGGCACT  switch fluorescence ratio         1.01
37     CGTATTAAGC  switch fluorescence ratio        0.955
38     GCTGTAACGA  switch fluorescence ratio        0.998
39     GAGTTTGTGG  switch fluorescence ratio        0.998
40       TCGAATGT  switch fluorescence ratio         1.01
41     GTGTGGGGGA  switch fluorescence ratio         1.02
42     GATGTTCGTG  switch fluorescence ratio        0.994
43      TTTGGTCGC  switch fluorescence ratio        0.985
44     TGCCGAGGCC  switch fluorescence ratio        0.977
45     ACGATCGGCT  switch fluorescence ratio         1.06
46     TACGGATACA  switch fluorescence ratio         1.18
47     TAGTACGGGC  switch fluorescence ratio            1
48     AGTGGGGGTC  switch fluorescence ratio         1.02
49     GGGGATTATG  switch fluorescence ratio        0.997
50     CAATGGGGTA  switch fluorescence ratio        0.992
51     TCAGTTGGGA  switch fluorescence ratio         0.97
52     CCTCGTGTTG  switch fluorescence ratio         1.02
53     GAAGGGACGT  switch fluorescence ratio         1.07
54     AAGCCATCCG  switch fluorescence ratio         1.07
55     ACTATTTTTG  switch fluorescence ratio        0.974
56     TGGGGTCAGG  switch fluorescence ratio         1.02
57     AATTATGTCA  switch fluorescence ratio         1.01
58     CGCGTTTTTG  switch fluorescence ratio         1.01
59     CTAAGAAGCG  switch fluorescence ratio          1.1
60     AATTCCGGGA  switch fluorescence ratio         1.05
61     TTTTAAGTGG  switch fluorescence ratio        0.991
62     CATTGTATGT  switch fluorescence ratio        0.942
63     CGTAACAATG  switch fluorescence ratio          1.1
64     TGGTGTTGGG  switch fluorescence ratio        0.983
65     TGACAGGGCT  switch fluorescence ratio         1.01
66     CTATGGATAC  switch fluorescence ratio         1.61
67     ACTCTTGCGG  switch fluorescence ratio         1.01
68     GTTGTGAAAG  switch fluorescence ratio            1
69     CTTGAATTTC  switch fluorescence ratio        0.987
70     AAAGGTAACG  switch fluorescence ratio            1
71     CGGTAGGTTT  switch fluorescence ratio         0.99
72     TTTTCGGGAT  switch fluorescence ratio         1.19
73     AATATTTCGG  switch fluorescence ratio         0.99
74     CCATTGTTAT  switch fluorescence ratio        0.988
75     ATTTGTGATG  switch fluorescence ratio        0.994
76     CTCACTTGGG  switch fluorescence ratio         1.02
77     ATACTGAATT  switch fluorescence ratio         1.01
78     GACTATAGAT  switch fluorescence ratio         1.05
79     AAGGTTAGAC  switch fluorescence ratio         1.03
80     CTGTAATAAG  switch fluorescence ratio         1.09
81     CGCTGCACAT  switch fluorescence ratio         2.21
82     CTCGCCGGGG  switch fluorescence ratio         1.06
83     AGGCAGGTTG  switch fluorescence ratio        0.985
84     GTTAGTTAAA  switch fluorescence ratio        0.968
85     ACCCTGTTGC  switch fluorescence ratio         1.12
86     CAATTTAATG  switch fluorescence ratio        0.999

* * *

Documented switch fluorescence ratio across a set of sequences
System: ATP;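 further: ATP exposure 15 min at 22 °C before imaging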
Assay: switch fluorescence ratio, 500 uM ATP over buffer (Cy3 cluster intensity, sum of 5 cycles each) (fold (ratio)); higher = stronger signal-on switching upon ATP binding; sequences stand for … in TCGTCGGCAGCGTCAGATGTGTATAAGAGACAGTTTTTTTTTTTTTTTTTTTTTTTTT…TC
Conditions: aptamer strand: ATP DNA aptamer (quencher-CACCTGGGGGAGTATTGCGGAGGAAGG + anchor), 100 nM annealed; ATP concentration: 500 uM
recorded.endpoint: switch fluorescence ratio

> print(dat)
    sequence.code          recorded.endpoint  measurement
 1     CGGGTCAACT  switch fluorescence ratio        0.963
 2     TTAACTGGAA  switch fluorescence ratio        0.978
 3     TCGCGGGAAG  switch fluorescence ratio         1.01
 4     GTGGGTGGTG  switch fluorescence ratio         1.01
 5     TTGAGGGCCT  switch fluorescence ratio        0.979
 6     CGAAGACCAG  switch fluorescence ratio         1.05
 7     TACGAGGGTG  switch fluorescence ratio         1.06
 8     TGTTAATTGA  switch fluorescence ratio         1.01
 9     CGAGGGAGGC  switch fluorescence ratio         1.01
10     CATCGGTGGG  switch fluorescence ratio         0.97
11     CGACGTGATG  switch fluorescence ratio         1.23
12     AGCTGAAGTG  switch fluorescence ratio        0.972
13      AGGAAGGCA  switch fluorescence ratio        0.975
14     TTGGCCTTTT  switch fluorescence ratio         1.09
15     TGTAACTTGC  switch fluorescence ratio         1.08
16     CAATAATGTG  switch fluorescence ratio        0.968
17     GGGGCCAGCT  switch fluorescence ratio        0.974
18     ACATTGGGCT  switch fluorescence ratio         1.01
19     GCTGGGTGCT  switch fluorescence ratio        0.984
20     ATTGGCTACT  switch fluorescence ratio        0.987
21     TATTATAAAT  switch fluorescence ratio         0.98
